MEASURED_TARGET: T1, human KDR1 to 3 domain (human, UniProt P35968 20-327, limits assumed)
T1 construct: domain: KDR1 to 3 domain; The panning antigen was KDR1 to 3 domain-Fc; Treated as one molecule; also called KDR1 to 3 domains; KDR D1 to D3
T1 sequence (P35968 20-327 limits assumed): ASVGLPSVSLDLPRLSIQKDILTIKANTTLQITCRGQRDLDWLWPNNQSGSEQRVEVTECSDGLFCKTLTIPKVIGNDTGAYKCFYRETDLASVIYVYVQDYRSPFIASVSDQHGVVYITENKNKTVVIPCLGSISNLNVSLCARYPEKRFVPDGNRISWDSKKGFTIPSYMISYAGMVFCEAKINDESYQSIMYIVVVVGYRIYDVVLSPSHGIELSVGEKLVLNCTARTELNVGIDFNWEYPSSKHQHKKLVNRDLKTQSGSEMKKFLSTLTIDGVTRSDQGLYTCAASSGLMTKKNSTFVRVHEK
MEASUREMENT_NOTES: BLI (Octet), antibody on biosensor, human KDR1 to 3 as analyte
Please respond with reported pKd for every item in the list.
// scale note: pKd = -log10(conc_M); give the bare number

Q: Dear colleague, please send me the reported pKd for LH-E7 (IgG) (antibody, V domains shown, Converted to IgG; VH was cloned into Invivogen pfusess-hchg1 (human IgG1 heavy constant) and VL into pfuse2ss-hclk (human kappa constant); also called LH-67; LH-ET) VH: EVQLVESGGGLVQPGGSLRLSCAASGYTFSSYWMSWVRQAPGKGLEWVSEINPGNGHTNYNEKFKSRFTISRDKSKNTLYLQMNSLRAEDTAVYYCARHWGPSLTSPFDYWGQGTLVTVSS VL: DIQMTQSPSSLSASVGDRVTITCRADNLGDVNVHWYQQKPGKAPKLLIYYDADRPSGVPSRFSGSNSGNDATLTISSLQPEDFATYYCQAPTRIAPYTFGQGTKVEIKR when you can.
Result: 8.89

Q: For D4 (IgG) (antibody, V domains shown, Converted to IgG with the pfusess-hchg1 (human IgG1) and pfuse2ss-hclk (human kappa) vectors) VH: EVQLVESGGGLVQPGGSLRLSCAASGYTFSSYWMSWVRQAPGKGLEWVSEINPGNGHTNYNEKFKSRFTISRDKSKNTLYLQMNSLRAEDTAVYYCARHWGPSLTSPFDYWGQGTLVTVSS VL: DIQMTQSPSSLSASVGDRVTITCRADNLGDVNVHWYQQKPGKAPKLLIYYDADRPSGVPSRFSGSNSGNDATLTISSLQPEDFATYYCQAPTNNDPYTFGQGTKVEIKR , write its pKd.
Result: 9.44

Q: Indicate the recorded pKd value for this binder: D3 (IgG) (antibody, V domains shown, Converted to IgG with the pfusess-hchg1 (human IgG1) and pfuse2ss-hclk (human kappa) vectors) VH: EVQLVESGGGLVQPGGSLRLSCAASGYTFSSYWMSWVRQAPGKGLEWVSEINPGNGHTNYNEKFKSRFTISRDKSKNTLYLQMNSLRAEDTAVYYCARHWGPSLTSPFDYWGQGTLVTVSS VL: DIQMTQSPSSLSASVGDRVTITCRADNLGDVNVHWYQQKPGKAPKLLIYYDADRPSGVPSRFSGSNSGNDATLTISSLQPEDFATYYCQAPTKNVPYTFGQGTKVEIKR
Result: 9.11
